Target: T1, orthogonal hCD122 receptor (hoRb), hCD122 with H133D and Y134F (human, UniProt P14784 27-550); also: reference of the scale not given here
T1 sequence: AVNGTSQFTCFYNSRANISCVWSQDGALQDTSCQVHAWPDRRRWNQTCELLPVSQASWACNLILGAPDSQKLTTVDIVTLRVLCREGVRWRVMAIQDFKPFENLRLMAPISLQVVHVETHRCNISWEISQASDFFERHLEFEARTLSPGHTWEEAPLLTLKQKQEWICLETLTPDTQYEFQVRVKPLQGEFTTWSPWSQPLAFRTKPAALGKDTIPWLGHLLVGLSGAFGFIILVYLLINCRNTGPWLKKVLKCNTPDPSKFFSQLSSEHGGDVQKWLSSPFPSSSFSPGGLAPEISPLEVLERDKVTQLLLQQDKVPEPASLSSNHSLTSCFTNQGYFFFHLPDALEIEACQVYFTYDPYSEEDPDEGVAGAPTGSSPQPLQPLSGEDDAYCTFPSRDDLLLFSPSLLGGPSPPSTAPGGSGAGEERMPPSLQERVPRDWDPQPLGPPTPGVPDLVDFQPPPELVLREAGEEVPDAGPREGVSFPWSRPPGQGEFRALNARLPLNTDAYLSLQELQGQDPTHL
Experiment: cell-based or functional assay
Reported Relative Proliferation Fold Change 3F8 1:50 values for a set of binders
PARAMETER MEASURED: Relative Proliferation Fold Change 3F8 1:50

| BINDER | READOUT VALUE |
| --- | --- |
| Δ88N, SQVLKA (ligand) APTSSSTKKTQLQLSQLLVLLKAILNGINNYKNPKLTRMLTFKFYMPKKATELKHLQCLEEELKPLEEVLNLAQSKNFHLRPRDLISINVIVLELKGSETTFMCEYADETATIVEFLNRWITFCQSIISTLT | 1.33 fold |
| L18Y, SQVLKA (ligand) APTSSSTKKTQLQLSQLYVLLKAILNGINNYKNPKLTRMLTFKFYMPKKATELKHLQCLEEELKPLEEVLNLAQSKNFHLRPRDLISNINVIVLELKGSETTFMCEYADETATIVEFLNRWITFCQSIISTLT | 64 fold |
| ΔT7, SQVLKA (ligand) APTSSSKKTQLQLSQLLVLLKAILNGINNYKNPKLTRMLTFKFYMPKKATELKHLQCLEEELKPLEEVLNLAQSKNFHLRPRDLISNINVIVLELKGSETTFMCEYADETATIVEFLNRWITFCQSIISTLT | 15.3 fold |
| SQVLKH (ligand) APTSSSTKKTQLQLSQLLVLLKHILNGINNYKNPKLTRMLTFKFYMPKKATELKHLQCLEEELKPLEEVLNLAQSKNFHLRPRDLISNINVIVLELKGSETTFMCEYADETATIVEFLNRWITFCQSIISTLT | 13.7 fold |
| L80V, SQVLKA (ligand) APTSSSTKKTQLQLSQLLVLLKAILNGINNYKNPKLTRMLTFKFYMPKKATELKHLQCLEEELKPLEEVLNLAQSKNFHVRPRDLISNINVIVLELKGSETTFMCEYADETATIVEFLNRWITFCQSIISTLT | 32.7 fold |
| L14M, SQVLKA (ligand) APTSSSTKKTQLQMSQLLVLLKAILNGINNYKNPKLTRMLTFKFYMPKKATELKHLQCLEEELKPLEEVLNLAQSKNFHLRPRDLISNINVIVLELKGSETTFMCEYADETATIVEFLNRWITFCQSIISTLT | 12.1 fold |
| Q74H, SQVLKA (ligand) APTSSSTKKTQLQLSQLLVLLKAILNGINNYKNPKLTRMLTFKFYMPKKATELKHLQCLEEELKPLEEVLNLAHSKNFHLRPRDLISNINVIVLELKGSETTFMCEYADETATIVEFLNRWITFCQSIISTLT | 53 fold |
